The reported measurements were obtained from patent US20260209362A1.

Listing of entries alongside the reported hIL12RB2/control (ELISA).
Biological target: T1, biotinylated human recombinant IL-12Rβ2 (produced in-house) (human, UniProt Q99665 24-622, random biotinylated)
T1 construct: Soluble recombinant protein used for panning, ELISA and BLI; also called hIL-12RB2; hIL12RB2
T1 sequence: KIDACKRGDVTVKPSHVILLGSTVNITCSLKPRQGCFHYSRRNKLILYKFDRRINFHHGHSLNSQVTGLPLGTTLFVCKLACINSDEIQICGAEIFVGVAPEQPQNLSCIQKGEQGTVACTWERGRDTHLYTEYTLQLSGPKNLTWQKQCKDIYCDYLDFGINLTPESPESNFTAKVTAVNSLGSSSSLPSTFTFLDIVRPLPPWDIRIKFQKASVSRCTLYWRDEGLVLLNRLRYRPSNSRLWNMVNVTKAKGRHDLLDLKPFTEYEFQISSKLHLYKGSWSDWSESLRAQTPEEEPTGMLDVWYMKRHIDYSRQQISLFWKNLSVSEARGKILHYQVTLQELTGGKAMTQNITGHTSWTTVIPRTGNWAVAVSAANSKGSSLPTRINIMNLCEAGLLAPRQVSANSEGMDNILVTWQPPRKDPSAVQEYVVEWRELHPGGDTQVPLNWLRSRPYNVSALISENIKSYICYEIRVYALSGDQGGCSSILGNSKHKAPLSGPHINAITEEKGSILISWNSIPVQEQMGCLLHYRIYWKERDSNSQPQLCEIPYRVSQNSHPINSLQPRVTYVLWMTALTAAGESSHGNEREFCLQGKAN
Experiment: ELISA, periplasmic extract on biotinylated human IL-12Rβ2; signal over streptavidin control well
Please answer using a numeric value trailed by its unit.

Binder | Measurement
anti-IL-12Rβ2 VHH clone 3CRHM99 (clone ID 21062) (VHH, Tested as periplasmic extract; not shown: C-terminal HA tag) VHH: QVQLQESGGGLVQPGGSLRLSCAASGISSSRLHVGWFRQSPGKEREFVAAISLSGGTQAYTDSVKGRFTISGDNVKNTAYLQMNSLRPEDTAVYYCAARERFIWTWSDLTYDYWGQGTQVTVSS | 4.24 ratio

Request: Which hIL12RB2/control (ELISA) is reported for this binder? anti-IL-12Rβ2 VHH clone 3CAHS142 (clone ID 20401) (VHH, Tested as periplasmic extract; not shown: C-terminal HA tag) VHH: QVQLQESGGGLVQAGESLTLSCIASGVIKDYAMGWFRQAPGKEREFVAAISWSGVSIYYADSVKGRFTISRDNAKNTVYLQMNSLEPEDTAVYYCAGTEGAYTVAGGSTFGYDMDYWGKGTQVTVSS
Result: 4.98 ratio
